Ref: patent US4962096A

- Tested on: platelet
- test_description: Platelet aggregation action in platelet rich plasma
- Format: cell-based
- details: rabbit PRP, 300,000 platelets/mm^3; final concentration 2×10^-10 to 2×10^-4 M; unit inferred
observed_property: EC50 (µM)

1 = CCCCCCCCCCCCCCCCOCC(COP(=O)([O-])OCCc1ccc[n+](C)c1)OC(C)=O (centres unmarked) [U]
2 = CCCCCCCCCCCCCCCCOCC(COP(=O)([O-])OCC1CSC(c2ccccc2)[N+]1(C)C)OC(C)=O (single isomer, unassigned) [S(Product B)]
Response body: label of entry with the larger EC50; valid values 1 , 2 . // respond with label for picked entry
2
(2: 0.74 µM, 1: 0.085 µM)
